# System: SW-620 colon
# Protocol text: NCI-60 one-dose screen, 48 h (100 = growth as untreated, 0 = no growth, -100 = all killed)
# Study conditions: 10 µM
# Method: Growth inhibition of the SW-620 human tumor cell line is measured as a screen for anti-cancer activity. Cells are grown in 96 well plates and exposed to the test compound for 48 hours. Compounds are tested at a single concentration, which is 10^-5 M for most compounds. The reported endpoint is percent growth (GI% or GIPRCNT), where numbers from 0 - 100% represent growth inhibition, and numbers from -100% - 0 represent cell death. For example, a value of 40 represents 60% growth inhibition. […]
Compounds without any hit were thinned out: in the full panel of roughly 83,000, 20% have a hit.
growth values, listed per item
Measured endpoint: growth (%)

{"Compound": "N#Cc1c(-c2ccc(Cl)cc2)n(O)c2ccccc12", "Target or test system": "SW-620 colon", "Measured result": 15.3}
{"Compound": "O=C(CCCCCCC(=O)Nc1ccccc1)NO", "Target or test system": "SW-620 colon", "Measured result": -25.7}
{"Compound": "O=C(COc1cccc(/C=C2\\CSc3ccccc3C2=O)c1)c1ccc(Cl)cc1", "Target or test system": "SW-620 colon", "Measured result": -100}
{"Compound": "O=C1CCn2c1c(O)c1ccccc1c2=O", "Target or test system": "SW-620 colon", "Measured result": 101}
{"Compound": "CN(C)CCCOc1ccc(OCCCN(C)C)c2c1C(=O)c1ccccc1C2=O", "Target or test system": "SW-620 colon", "Measured result": 3.12}
{"Compound": "COc1ccc(C2CC(c3cc(OC)c(OC)c(OC)c3)=NN2)cc1 (stereo unspecified)", "Target or test system": "SW-620 colon", "Measured result": 48}

====

List of growth values.
# Test system: SF-539 CNS
# Protocol text: NCI-60 one-dose screen, 48 h (100 = growth as untreated, 0 = no growth, -100 = all killed)
# Study conditions: 10 µM
The panel holds about 83,000 compounds, 20% with a hit somewhere; the sample as a whole holds those more often.

{"Compound": "CC(=O)OC1CC2C(C)(C)CCC[C@]2(C)C2=C1C(O)=C(C(C)C)C(=O)C2=O (stereo partly specified)", "Target or test system": "SF-539 CNS", "growth / %": -7.95}
{"Compound": "CCc1ccc(-c2ccc(-n3nc(C)c4c(N)nc(Cc5ccccc5)nc43)cc2)cc1", "Target or test system": "SF-539 CNS", "growth / %": 80.9}
{"Compound": "Cc1cc(NC(=O)c2ccc(C)c(Nc3nccc(-c4cccnc4)n3)c2)cc(-n2cnc(C)c2)c1", "Target or test system": "SF-539 CNS", "growth / %": 21.1}
{"Compound": "CC(C)(C)c1ccc(S(=O)(=O)Oc2ccc(NC(=O)C3CCCCC3)cc2)cc1", "Target or test system": "SF-539 CNS", "growth / %": 73.2}
{"Compound": "CCOC(=O)c1cc(C(=O)c2cc(OC)c(OC)c(OC)c2)n2nc(C)ccc12", "Target or test system": "SF-539 CNS", "growth / %": 15}
{"Compound": "C=CCN(CC=C)C(=O)[C@H](CC)[C@@H]1CC[C@@H](C)[C@@H]([C@H](C)[C@@H](O)[C@@H](C)C(=O)[C@H](CC)C2O[C@]3(C=C[C@@H](O)[C@]4(CC[C@@](C)([C@H]5CC[C@](O)(CC)[C@H](C)O5)O4)O3)[C@H](C)C[C@@H]2C)O1 (stereo partly specified)", "Target or test system": "SF-539 CNS", "growth / %": 29.1}
{"Compound": "CCC(=O)OC1CCC2C3CCC(=O)OC3C(C)(CCC(=O)O)CC12C (stereo unspecified)", "Target or test system": "SF-539 CNS", "growth / %": 5.18}
{"Compound": "CCCCCOC(=O)Nc1nc(=O)n(C2O[C@H](C)[C@@H](O)[C@H]2O)cc1F (stereo partly specified)", "Target or test system": "SF-539 CNS", "growth / %": 101}
{"Compound": "COc1ccccc1-n1c(-c2csc(NC(C)=O)n2)n[nH]c1=S", "Target or test system": "SF-539 CNS", "growth / %": 112}
{"Compound": "Cc1ccc2nc(Cl)c(-c3nc4ccccc4o3)cc2c1", "Target or test system": "SF-539 CNS", "growth / %": 99.2}
{"Compound": "OCC1OC2C(NC(=S)N2c2ccccc2)C(O)C1O (stereo unspecified)", "Target or test system": "SF-539 CNS", "growth / %": 102}
{"Compound": "O=C(Cn1cc(CO)nn1)Nc1nc2ccccc2s1", "Target or test system": "SF-539 CNS", "growth / %": 95}
{"Compound": "Cc1c2cnccc2c(C)c2c1c1cc(O)ccc1n2C(C)C", "Target or test system": "SF-539 CNS", "growth / %": 7.2}
{"Compound": "COC(=O)c1cc2oc(/C=C3/SC(=S)N(N)C3=O)cc2n1Cc1ccccc1", "Target or test system": "SF-539 CNS", "growth / %": 44.7}
{"Compound": "NC(CSC(c1ccccc1)(c1ccccc1)c1cccc2ccccc12)C(=O)O (stereo unspecified)", "Target or test system": "SF-539 CNS", "growth / %": 94.5}
{"Compound": "CCOC(=O)Cn1c(=O)c2sc3ncccc3c2n2nnc(-c3ccccc3)c12", "Target or test system": "SF-539 CNS", "growth / %": 105}
{"Compound": "COc1ccc(N(C)c2ncnc3occ(C)c23)cc1", "Target or test system": "SF-539 CNS", "growth / %": -20.4}
{"Compound": "CS(=O)(=O)c1nccc(-c2c(-c3cccc(O)c3)nc3sccn23)n1", "Target or test system": "SF-539 CNS", "growth / %": 92.4}
{"Compound": "COc1cc(OC)c2c(=O)c(O)c(-c3ccccc3)oc2c1", "Target or test system": "SF-539 CNS", "growth / %": 79.7}
{"Compound": "COc1ccc(C2CC(c3cccs3)=NN2c2ccc(S(N)(=O)=O)cc2)cc1 (stereo unspecified)", "Target or test system": "SF-539 CNS", "growth / %": 104}
{"Compound": "CNS(=O)(=O)Oc1ccc(-c2ccc3occc3c2)cc1", "Target or test system": "SF-539 CNS", "growth / %": 98.1}
{"Compound": "Cc1cn(-c2cccc(NC(=O)c3ccc(C)c(Nc4nccc(-c5cccnc5)n4)c3)c2)cn1", "Target or test system": "SF-539 CNS", "growth / %": -33.3}
{"Compound": "C=C(NC(=O)C(=C)NC(=O)c1csc(C2=NC3c4csc(n4)C4NC(=O)c5csc(n5)C(C(C)(O)C(C)O)NC(=O)C5CSC(=N5)C(=CC)NC(=O)C(C(C)O)NC(=O)c5csc(n5)C3(CC2)NC(=O)C(C)NC(=O)C(=C)NC(=O)C(C)NC(=O)C(C(C)CC)NC2C=Cc3c(C(C)O)cc(nc3C2O)C(=O)OC4C)n1)C(N)=O (stereo unspecified)", "Target or test system": "SF-539 CNS", "growth / %": 1.63}
{"Compound": "COc1ccc(-c2cc(-c3ccc(Cl)cc3)nc(SCCCCCCC(=O)NO)n2)cc1OC", "Target or test system": "SF-539 CNS", "growth / %": 58.4}
{"Compound": "COc1ccc2c(c1)CC=C1[C@@H]2CC[C@]2(C)C(=O)/C(=N/O)C[C@@H]12", "Target or test system": "SF-539 CNS", "growth / %": 98.7}
{"Compound": "COc1ccc(-c2n[nH]nc2-c2cc(OC)c(OC)c(OC)c2)cc1", "Target or test system": "SF-539 CNS", "growth / %": 10.3}

====

# Test system: KM12 colon
# Protocol text: NCI-60 one-dose screen, 48 h
# Study conditions: 10 µM
About 83,000 compounds went through this panel and 20% of them were active in at least one assay; those are over-represented in the sample as a whole. The source made the active and inactive calls. Rule for the calls: active = growth percent below 10; inactive = the rest.
Outcomes: yes (active), no (inactive)

{"Compound": "Cc1ccc(/C=C2/C(=O)N(C)c3ccc(S(=O)(=O)Nc4ccc(C(C)(C)C)cc4)cc32)s1", "Class label": "no"}
{"Compound": "Cc1ccc(NCCNCC(C)(C)O)c2c(=O)c3ccc(Cl)cc3sc12", "Class label": "yes"}
{"Compound": "Clc1ccc(C2=NN=C3C(Cc4ccccc4)=Nc4ccccc4N3C2)cc1", "Class label": "no"}
{"Compound": "O=C(CCl)Oc1ccc(OC(=O)CCl)cc1", "Class label": "no"}
{"Compound": "O=[N+]([O-])c1ccc(/C(=C/c2ccccc2)[n+]2ccccc2)cc1", "Class label": "no"}
{"Compound": "Cc1cc(=O)n2nnc3cc(C(F)(F)F)ccc3n12", "Class label": "no"}
{"Compound": "CNS(=O)(=O)Oc1ccc(-c2ccc3occc3c2)cc1", "Class label": "no"}
{"Compound": "N#Cc1c(N)nc(-c2cc(F)cc(C(F)(F)F)c2)nc1-c1ccccc1F", "Class label": "no"}
{"Compound": "COc1cc2c(cc1NC(=O)C(Cl)Cl)-c1ccc(NC(=O)C(Cl)Cl)cc1C2", "Class label": "yes"}
{"Compound": "CC(=O)OC1C=CC(OC(C)=O)O1 (stereo not given)", "Class label": "no"}
{"Compound": "COc1ccc(-c2cc(-c3ccccc3)nc(SCCCCCCC(=O)NO)n2)cc1", "Class label": "no"}
{"Compound": "Clc1nc2ccccc2cc1Cn1nnc(Cc2ccccc2)n1", "Class label": "no"}
{"Compound": "C=CCn1c(SCC(=O)Nc2ccc(C(=O)/C=C/c3ccc(OC)cc3)cc2)nnc1-c1ccc(OC)c(OC)c1", "Class label": "no"}
{"Compound": "O=C1c2c(c(=O)[nH]c3ccccc23)CCN1Cc1ccccc1", "Class label": "no"}
{"Compound": "O=C(Nc1ccc(OCc2nnc(-c3ccc(Cl)cc3)o2)c(F)c1)Nc1ccc(Cl)c(C(F)(F)F)c1", "Class label": "yes"}
{"Compound": "C[C@]12CC[C@@H]3c4ccc(O)cc4CC[C@H]3[C@@H]1CC[C@@H]2NS(=O)(=O)c1ccc(C(F)(F)F)cc1", "Class label": "no"}
{"Compound": "CN(C)c1nc(N)c2nccnc2n1", "Class label": "no"}
{"Compound": "CSc1nc2c(c(=O)n1C)CN(Cc1ccccc1)C(=O)CN2", "Class label": "no"}
{"Compound": "COc1cc2cc(Oc3ccc(NC(=O)c4ccc(Cl)c(C(F)(F)F)c4)cc3)c(C)nc2cc1OC", "Class label": "no"}
{"Compound": "CC1C(=NC(=O)c2cnccn2)C(C)C(c2ccc(Cl)cc2)NC1c1ccncc1 (stereo not given)", "Class label": "no"}
{"Compound": "CN(C)CCN(Cc1ccccc1)c1ccc2ccccc2n1", "Class label": "no"}
{"Compound": "NS(=O)(=O)Oc1ccc(-c2ccc3sccc3c2)cc1", "Class label": "no"}
{"Compound": "O=C(CSc1nccc(Nc2cccc3ccccc23)n1)c1ccc(Cl)cc1", "Class label": "no"}
{"Compound": "Cc1ccccc1N1C(=O)c2cc(S(N)(=O)=O)c(Cl)cc2NC1C (stereo not given)", "Class label": "no"}
{"Compound": "CCn1c(SC/C(=N/O)c2ccccc2)nnc1-c1ccccc1", "Class label": "no"}
